assay: Simulation of the gastrointestinal tract, transfer model (donor medium to FaSSIF acceptor medium); format: physicochemical; details: FaSSIF (acceptor medium); FaSSIF, phosphate buffer pH 6.5; read-out: solubility in the acceptor medium
value-type: solubility (µg/mL)

# compound-string, recorded-value
data = [
    ("CCC(CC)CNC(=O)Cn1cccc(NC(=O)[C@H](CC/C=C/C(=O)OC)NC(=O)c2cncn2C)c1=O", 200),
]
